Each entry below carries its reported normalized RNA/DNA level with ligand (log10).
B1: library; a variant is named by its letters at N, in order (parent)
chain: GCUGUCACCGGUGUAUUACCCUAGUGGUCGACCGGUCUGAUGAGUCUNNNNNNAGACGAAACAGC

# Variants of: B1
# procedure summary: normalized RNA/DNA level with ligand (relative to sTRSVctl = 100) (log10 (% of sTRSVctl)); ligand: hypoxanthine (xanthine aptamer); higher = less ribozyme self-cleavage, higher mRNA level
# run parameters: ligand concentration (+) RNA-Seq: 5 mM, HEK293T, reporter: mCherry (pCS4076), ligand present: yes
measured quantity: normalized RNA/DNA level with ligand (log10)

[[record]]
sequence_content = "GCUGUCACCGGUGUAUUACCCUAGUGGUCGACCGGUCUGAUGAGUCUGAGAGAAGACGAAACAGC [GAGAGA]"
measured = 1.81

[[record]]
sequence_content = "GCUGUCACCGGUGUAUUACCCUAGUGGUCGACCGGUCUGAUGAGUCUAAUAUGAGACGAAACAGC [AAUAUG]"
measured = 1.84

[[record]]
sequence_content = "GCUGUCACCGGUGUAUUACCCUAGUGGUCGACCGGUCUGAUGAGUCUGACCGAAGACGAAACAGC [GACCGA]"
measured = 1.97

[[record]]
sequence_content = "GCUGUCACCGGUGUAUUACCCUAGUGGUCGACCGGUCUGAUGAGUCUGUGAUUAGACGAAACAGC [GUGAUU]"
measured = 1.92

[[record]]
sequence_content = "GCUGUCACCGGUGUAUUACCCUAGUGGUCGACCGGUCUGAUGAGUCUUGUAUUAGACGAAACAGC [UGUAUU]"
measured = 1.95

[[record]]
sequence_content = "GCUGUCACCGGUGUAUUACCCUAGUGGUCGACCGGUCUGAUGAGUCUUGGAGUAGACGAAACAGC [UGGAGU]"
measured = 1.78

[[record]]
sequence_content = "GCUGUCACCGGUGUAUUACCCUAGUGGUCGACCGGUCUGAUGAGUCUAAAUAUAGACGAAACAGC [AAAUAU]"
measured = 1.92

[[record]]
sequence_content = "GCUGUCACCGGUGUAUUACCCUAGUGGUCGACCGGUCUGAUGAGUCUGGUUUUAGACGAAACAGC [GGUUUU]"
measured = 1.93

[[record]]
sequence_content = "GCUGUCACCGGUGUAUUACCCUAGUGGUCGACCGGUCUGAUGAGUCUCAGGGCAGACGAAACAGC [CAGGGC]"
measured = 1.99

[[record]]
sequence_content = "GCUGUCACCGGUGUAUUACCCUAGUGGUCGACCGGUCUGAUGAGUCUGAUUCUAGACGAAACAGC [GAUUCU]"
measured = 1.97

[[record]]
sequence_content = "GCUGUCACCGGUGUAUUACCCUAGUGGUCGACCGGUCUGAUGAGUCUAGCUCGAGACGAAACAGC [AGCUCG]"
measured = 1.93

[[record]]
sequence_content = "GCUGUCACCGGUGUAUUACCCUAGUGGUCGACCGGUCUGAUGAGUCUUUCUAGAGACGAAACAGC [UUCUAG]"
measured = 1.94

[[record]]
sequence_content = "GCUGUCACCGGUGUAUUACCCUAGUGGUCGACCGGUCUGAUGAGUCUACCUGAAGACGAAACAGC [ACCUGA]"
measured = 1.96

[[record]]
sequence_content = "GCUGUCACCGGUGUAUUACCCUAGUGGUCGACCGGUCUGAUGAGUCUGUAACGAGACGAAACAGC [GUAACG]"
measured = 1.93

[[record]]
sequence_content = "GCUGUCACCGGUGUAUUACCCUAGUGGUCGACCGGUCUGAUGAGUCUUGAAUCAGACGAAACAGC [UGAAUC]"
measured = 1.94

[[record]]
sequence_content = "GCUGUCACCGGUGUAUUACCCUAGUGGUCGACCGGUCUGAUGAGUCUAUCGGUAGACGAAACAGC [AUCGGU]"
measured = 1.91

[[record]]
sequence_content = "GCUGUCACCGGUGUAUUACCCUAGUGGUCGACCGGUCUGAUGAGUCUUGUAGCAGACGAAACAGC [UGUAGC]"
measured = 1.94

[[record]]
sequence_content = "GCUGUCACCGGUGUAUUACCCUAGUGGUCGACCGGUCUGAUGAGUCUGGUACAAGACGAAACAGC [GGUACA]"
measured = 1.94

[[record]]
sequence_content = "GCUGUCACCGGUGUAUUACCCUAGUGGUCGACCGGUCUGAUGAGUCUAAACUGAGACGAAACAGC [AAACUG]"
measured = 1.82

[[record]]
sequence_content = "GCUGUCACCGGUGUAUUACCCUAGUGGUCGACCGGUCUGAUGAGUCUCUUACGAGACGAAACAGC [CUUACG]"
measured = 1.96

[[record]]
sequence_content = "GCUGUCACCGGUGUAUUACCCUAGUGGUCGACCGGUCUGAUGAGUCUGCGCGAAGACGAAACAGC [GCGCGA]"
measured = 1.84

[[record]]
sequence_content = "GCUGUCACCGGUGUAUUACCCUAGUGGUCGACCGGUCUGAUGAGUCUCGAAUAAGACGAAACAGC [CGAAUA]"
measured = 1.9

[[record]]
sequence_content = "GCUGUCACCGGUGUAUUACCCUAGUGGUCGACCGGUCUGAUGAGUCUGAGGUCAGACGAAACAGC [GAGGUC]"
measured = 2

[[record]]
sequence_content = "GCUGUCACCGGUGUAUUACCCUAGUGGUCGACCGGUCUGAUGAGUCUCAUUAAAGACGAAACAGC [CAUUAA]"
measured = 1.87

[[record]]
sequence_content = "GCUGUCACCGGUGUAUUACCCUAGUGGUCGACCGGUCUGAUGAGUCUAGAUCUAGACGAAACAGC [AGAUCU]"
measured = 1.94

[[record]]
sequence_content = "GCUGUCACCGGUGUAUUACCCUAGUGGUCGACCGGUCUGAUGAGUCUCCCUACAGACGAAACAGC [CCCUAC]"
measured = 1.97

[[record]]
sequence_content = "GCUGUCACCGGUGUAUUACCCUAGUGGUCGACCGGUCUGAUGAGUCUCUGUCGAGACGAAACAGC [CUGUCG]"
measured = 1.98

[[record]]
sequence_content = "GCUGUCACCGGUGUAUUACCCUAGUGGUCGACCGGUCUGAUGAGUCUAUACUGAGACGAAACAGC [AUACUG]"
measured = 1.86

[[record]]
sequence_content = "GCUGUCACCGGUGUAUUACCCUAGUGGUCGACCGGUCUGAUGAGUCUACAAGCAGACGAAACAGC [ACAAGC]"
measured = 1.92

[[record]]
sequence_content = "GCUGUCACCGGUGUAUUACCCUAGUGGUCGACCGGUCUGAUGAGUCUAAUUGUAGACGAAACAGC [AAUUGU]"
measured = 1.93

[[record]]
sequence_content = "GCUGUCACCGGUGUAUUACCCUAGUGGUCGACCGGUCUGAUGAGUCUUUCGAGAGACGAAACAGC [UUCGAG]"
measured = 1.88

[[record]]
sequence_content = "GCUGUCACCGGUGUAUUACCCUAGUGGUCGACCGGUCUGAUGAGUCUCUGGGAAGACGAAACAGC [CUGGGA]"
measured = 2.03

[[record]]
sequence_content = "GCUGUCACCGGUGUAUUACCCUAGUGGUCGACCGGUCUGAUGAGUCUCCGGAGAGACGAAACAGC [CCGGAG]"
measured = 1.86

[[record]]
sequence_content = "GCUGUCACCGGUGUAUUACCCUAGUGGUCGACCGGUCUGAUGAGUCUAAAUUCAGACGAAACAGC [AAAUUC]"
measured = 1.95

[[record]]
sequence_content = "GCUGUCACCGGUGUAUUACCCUAGUGGUCGACCGGUCUGAUGAGUCUGCCACAAGACGAAACAGC [GCCACA]"
measured = 1.96

[[record]]
sequence_content = "GCUGUCACCGGUGUAUUACCCUAGUGGUCGACCGGUCUGAUGAGUCUGGUCCCAGACGAAACAGC [GGUCCC]"
measured = 1.92

[[record]]
sequence_content = "GCUGUCACCGGUGUAUUACCCUAGUGGUCGACCGGUCUGAUGAGUCUGAAUUUAGACGAAACAGC [GAAUUU]"
measured = 1.96

[[record]]
sequence_content = "GCUGUCACCGGUGUAUUACCCUAGUGGUCGACCGGUCUGAUGAGUCUACGGACAGACGAAACAGC [ACGGAC]"
measured = 1.92

[[record]]
sequence_content = "GCUGUCACCGGUGUAUUACCCUAGUGGUCGACCGGUCUGAUGAGUCUUGCUUCAGACGAAACAGC [UGCUUC]"
measured = 1.99

[[record]]
sequence_content = "GCUGUCACCGGUGUAUUACCCUAGUGGUCGACCGGUCUGAUGAGUCUGUCAUGAGACGAAACAGC [GUCAUG]"
measured = 1.9

[[record]]
sequence_content = "GCUGUCACCGGUGUAUUACCCUAGUGGUCGACCGGUCUGAUGAGUCUCAUUUGAGACGAAACAGC [CAUUUG]"
measured = 1.98

[[record]]
sequence_content = "GCUGUCACCGGUGUAUUACCCUAGUGGUCGACCGGUCUGAUGAGUCUAAAACCAGACGAAACAGC [AAAACC]"
measured = 1.93

[[record]]
sequence_content = "GCUGUCACCGGUGUAUUACCCUAGUGGUCGACCGGUCUGAUGAGUCUUCUCACAGACGAAACAGC [UCUCAC]"
measured = 2

[[record]]
sequence_content = "GCUGUCACCGGUGUAUUACCCUAGUGGUCGACCGGUCUGAUGAGUCUCUACUUAGACGAAACAGC [CUACUU]"
measured = 1.99

[[record]]
sequence_content = "GCUGUCACCGGUGUAUUACCCUAGUGGUCGACCGGUCUGAUGAGUCUGUGCCGAGACGAAACAGC [GUGCCG]"
measured = 1.91

[[record]]
sequence_content = "GCUGUCACCGGUGUAUUACCCUAGUGGUCGACCGGUCUGAUGAGUCUGGUGAAAGACGAAACAGC [GGUGAA]"
measured = 1.9

